System: PC-3 prostate
Experiment: NCI tumour cell line growth inhibition, 48 h
Where a SMILES comes first, the peptide text is derived from it. The star is where a group is joined. Boc = CC(C)(C)OC(=O)*
Measured TGI of individual entries
METRIC: TGI

{"COMPOUND": "CNc1cc(OCc2ccccc2)c(OC)cc1C(=O)N1CCC[C@H]1CO", "ENDPOINT VALUE": "> 100 µM"}
{"COMPOUND": "O=C1CC[C@@]2(O)[C@H]3Cc4ccc(-c5cccc(O)c5)c5c4[C@@]2(CCN3CC2CC2)[C@H]1O5", "ENDPOINT VALUE": "> 91.2 µM"}
{"COMPOUND": "O=c1[nH]c2ccc(C(F)(F)F)cc2nc1Cc1ccccc1", "ENDPOINT VALUE": "81.3 µM"}
{"COMPOUND": "CCC(=O)O[C@H]1CC[C@H]2[C@@H]3CCC4=CC(=O)C=C[C@]4(O)[C@H]3CC[C@]12C", "ENDPOINT VALUE": "81.4 µM"}
{"COMPOUND": "CC(NC(=O)OC(C)(C)C)C(=O)NC(Cc1ccccc1)C(=O)NCC(=O)O (stereo not drawn) (Boc-Ala-Phe-Gly-OH; configuration not given here)", "ENDPOINT VALUE": "> 100 µM"}
{"COMPOUND": "CC1=c2c(oc3cc(O)c(Nc4c(C)cc(O)cc4O)c(C)c23)=CC(=O)C1=Nc1c(C)cc(O)cc1O", "ENDPOINT VALUE": "> 100 µM"}
{"COMPOUND": "O=C(c1ccc(Cl)c(Cl)c1)N(Cc1cccnc1)C(=S)N(Cc1cccnc1)C(=O)c1ccc(Cl)c(Cl)c1", "ENDPOINT VALUE": "83.4 µM"}
{"COMPOUND": "Cc1coc2c1[C@@H](O)[C@@]1(C)[C@H](CCC[C@@H]1C)C2", "ENDPOINT VALUE": "> 100 µM"}
{"COMPOUND": "O=C(O[C@H]1CN[C@H](C#Cc2cc3ncnc(Nc4ccc5c(cnn5Cc5ccccc5)c4)c3s2)C1)N1CCOCC1", "ENDPOINT VALUE": "> 25 µM"}
{"COMPOUND": "COC(=O)C1CCC(NC(=O)c2csc([C@@H](C[C@H](C(C)C)N(C)C(=O)[C@@H](NC(=O)[C@H]3CCCCN3C)C(C)C)OC(C)=O)n2)CC1 (stereo not given in full)", "ENDPOINT VALUE": "> 33.3 µM"}
